tested on: human colon cancer HT29; experiment: In vitro cell growth inhibition test, MTT assay; type: cell-based; settings: MTT assay 4 days after compound addition
assay_readout: IC50, HT29 (ng/mL)

Previously resolved entries follow.
CCNC(=Nc1ncncc1CSc1nnc(-c2ccc(F)cc2N)o1)NCC [Compound A-65] | 1.4
C=C(Br)CNC(=Nc1ncncc1CSc1nnc(-c2ccc(N)cc2)o1)NCC [Compound A-111] | 35
CCCNC(=Nc1nc(CC)ncc1CSc1nnc(-c2ccc([N+](=O)[O-])cc2)o1)NCCC [Compound A-138] | 30
CCNC(=Nc1nc(C)ncc1CSc1nnc(-c2cc(F)ccc2N)o1)NCC [Compound A-50] | 90
CCNC(=Nc1nc(C)ncc1CSc1nnc(-c2ccc(N)cc2)o1)NCC.Cl.Cl [Compound A-186] | 14

1: CCNC(=Nc1ncncc1CSc1nnc(-c2ccc(CN)cc2)o1)NCC [Compound A-119]
2: CCNC(=Nc1nc(C)ncc1CSc1nnc(-c2ccccc2NC(C)=O)o1)NC [Compound A-2]
3: CCNC(=Nc1nc(C)ncc1CSc1nnc(-c2ccc([N+](=O)[O-])cc2)o1)NCC [Compound A-82]
INPUT: Please give the order of these compounds when sorted by IC50, HT29, largest value leading. Output spec: labels arranged per the requested ranking.
OUTPUT: 1, 2, 3

====

system: human colon cancer HT29; experiment: In vitro cell growth inhibition test, MTT assay; assay type: cell-based; conditions: MTT assay 4 days after compound addition
assay_readout: IC50, HT29 (µg/mL)

CCNC(=Nc1ncncc1CSc1nnc(-c2ccc([N+](=O)[O-])cc2)o1)NCC | 0.0033
CCCNC(=Nc1nc(C)ncc1CSc1nnc(-c2ccc(N)cc2)o1)NC | 0.016
CCCCNC(=Nc1nc(C)ncc1CSc1nnc(-c2ccc([N+](=O)[O-])cc2)o1)NCCCC | 0.042
CCNC(=Nc1nc(C)ncc1CSc1nnc(-c2ccc([N+](=O)[O-])cc2)o1)NC | 0.068
CCNC(=Nc1nc(C)ncc1CSc1nnc(-c2ccccc2NCC)o1)NC | 0.049

I: CCNC(=Nc1nc(C)ncc1CSc1nnc(-c2ccc([N+](=O)[O-])cc2)o1)NC(C)C
II: CCNC(=Nc1ncncc1CSc1nnc(-c2ccc(NC)cc2)o1)NCC
INPUT: Which value of IC50, HT29 is smaller, the one for I or the one for II ? Pick one and reply with its label.
OUTPUT: I

====

system: human colon cancer HT29; test: In vitro cell growth inhibition test, MTT assay; assay type: cell-based; settings: MTT assay 4 days after compound addition
assay_readout: IC50, HT29 (µg/mL)

I: CCNC(=Nc1ncncc1CSc1nnc(-c2ccc([N+](=O)[O-])cc2OC)o1)NCC
II: CCCCNC(=Nc1nc(C)ncc1CSc1nnc(-c2ccc([N+](=O)[O-])cc2)o1)NCC
INPUT: For the two items I and II , which reports the higher IC50, HT29 value? Pick one and reply with its label.
OUTPUT: I
(I: 0.028 µg/mL, II: 0.011 µg/mL)

A: CCCNC(N)=Nc1nc(C)ncc1CSc1nnc(-c2ccc([N+](=O)[O-])cc2)o1
B: CCNC(=Nc1ncncc1CSc1nnc(-c2ccc([N+](=O)[O-])cc2Cl)o1)NCC
INPUT: For the two items A and B , which reports the higher IC50, HT29 value? Pick one and reply with its label.
OUTPUT: A

a: CCNC(=Nc1nc(C)ncc1CSc1nnc(-c2ccc(C(=O)c3ccccc3)cc2)o1)NCC
b: CCCNC(=Nc1nc(C)ncc1CSc1nnc(-c2ccc([N+](=O)[O-])cc2)o1)NCC
INPUT: For the two items a and b , which reports the higher IC50, HT29 value? Pick one and reply with its label.
OUTPUT: a
(a: 0.38 µg/mL, b: 0.01 µg/mL)

a: CCCNC(=Nc1ncncc1CSc1nnc(-c2ccc([N+](=O)[O-])cc2)o1)NCCC
b: CCCNC(=Nc1nc(C)ncc1CSc1nnc(-c2ccc(N)cc2)o1)NCCC
INPUT: Which value of IC50, HT29 is smaller, the one for a or the one for b ? Pick one and reply with its label.
OUTPUT: b

====

System: human colon cancer HT29
Test: In vitro cell growth inhibition test, MTT assay
Format: cell-based
Details: MTT assay 4 days after compound addition
Source text: Test Example 2 In Vitro Cell Growth Inhibition Test Cells and MTT Assay Human squamous lung cancer […], human squamous lung cancer Ma44, human lung adenocarcinoma A549, human colon cancer HT29 and human pancreas cancer PANC-1 were used.
assay_readout: IC50, HT29 (µg/mL)

Previously resolved entries follow.
CCNC(=Nc1nc(CC)ncc1CSc1nnc(-c2ccc([N+](=O)[O-])cc2)o1)NCC [Compound A-131] | 0.025
CCCNC(=Nc1ncncc1CSc1nnc(-c2ccc(N)cc2)o1)NCC [Compound A-178] | 0.0067
CCNC(=Nc1ncncc1CSc1nnc(-c2ccc(C(C)C)cc2)o1)NCC [Compound A-115] | 0.065
CCNC(=Nc1nc(C)ncc1CSc1nnc(-c2ccc(Cl)cc2N)o1)NCC [Compound A-44] | 0.0061
CCNC(=Nc1nc(C)ncc1CSc1nnc(-c2ccsc2N)o1)NCC [Compound D-8] | 0.03

1: CCNC(N)=Nc1nc(C)ncc1CSc1nnc(-c2ccc(N)cc2)o1 [Compound A-184]
2: CCNC(=Nc1nc(C)ncc1CSc1nnc(-c2ccccc2NC)o1)NC [Compound A-38]
3: CCNC(=Nc1ncncc1CSc1nnc(-c2cc[n+]([O-])cc2)o1)NCC [Compound D-42]
4: CCNC(=Nc1nc(C)ncc1CSc1nnc(-c2ccc([N+](=O)[O-])cc2F)o1)NCC [Compound A-132]
INPUT: // ascending sort on recorded IC50, HT29 Output spec: labels arranged per the requested ranking.
OUTPUT: 1, 2, 4, 3
(1: 0.0077 µg/mL, 2: 0.023 µg/mL, 4: 0.039 µg/mL, 3: 0.071 µg/mL)

====

tested on: human colon cancer HT29; assay: In vitro cell growth inhibition test, MTT assay; format: cell-based; conditions: MTT assay 4 days after compound addition
assay_readout: IC50, HT29 (µg/mL)

CCNC(=Nc1ncncc1CSc1nnc(-c2ccc(C(C)=O)cc2)o1)NCC | 0.017
CNC(=Nc1nc(C)ncc1CSc1nnc(-c2ccc([N+](=O)[O-])cc2)o1)NC | 0.007
CCNC(=Nc1nc(C)ncc1CSc1nnc(-c2ccc(N)cc2)o1)NCC | 0.011
CCCNC(=Nc1nc(C)ncc1CSc1nnc(-c2ccc([N+](=O)[O-])cc2)o1)NCC.Cl | 0.01
CCNC(=Nc1ncncc1CSc1nnc(-c2ccsc2)o1)NCC | 0.016

I: Cc1ncc(CSc2nnc(-c3ccc([N+](=O)[O-])cc3)o2)c(N=C(NC(C)C)NC(C)C)n1
II: CCCNC(=Nc1nc(CC)ncc1CSc1nnc(-c2ccc(N)cc2)o1)NCCC
III: CNC(N)=Nc1nc(C)ncc1CSc1nnc(-c2ccccc2N)o1.Cl.Cl
IV: Cc1ncc(CSc2nnc(-c3ccccc3N)o2)c(N=C(N)NCc2ccccc2)n1
V: CCNC(=Nc1nc(C)ncc1CSc1nnc(-c2ccc([N+](=O)[O-])cc2N)o1)NCC
INPUT: Please give the order of these compounds when sorted by IC50, HT29, largest value leading. Output spec: labels arranged per the requested ranking.
OUTPUT: IV, III, I, II, V
(IV: 0.51 µg/mL, III: 0.15 µg/mL, I: 0.052 µg/mL, II: 0.008 µg/mL, V: 0.0038 µg/mL)

I: CNC(=Nc1nc(C)ncc1CSc1nnc(-c2ccc([N+](=O)[O-])cc2OC)o1)NC
II: CCCNC(=Nc1nc(CC)ncc1CSc1nnc(-c2ccc(F)cc2N)o1)NCCC
INPUT: Which value of IC50, HT29 is smaller, the one for I or the one for II ? Pick one and reply with its label.
OUTPUT: I

A: CCNC(=Nc1ncncc1CSc1nnc(-c2ccc(N)cc2)o1)NCCO
B: CCNC(=Nc1nc(C)ncc1CSc1nnc(-c2ccc(Cl)cc2Cl)o1)NCC
C: CCNC(=Nc1nc(C)ncc1CSc1nnc(-c2ccc(N)cc2)o1)NC(C)C
INPUT: Please give the order of these compounds when sorted by IC50, HT29, largest value leading. Output spec: labels arranged per the requested ranking.
OUTPUT: A, B, C

a: CCCNC(=Nc1nc(C)ncc1CSc1nnc(-c2ccc(Cl)cc2)o1)NCCC
b: CCCNC(=Nc1nc(C)ncc1CSc1nnc(-c2ccccc2N)o1)NCC
INPUT: Which value of IC50, HT29 is smaller, the one for a or the one for b ? Pick one and reply with its label.
OUTPUT: b

====

tested on: human colon cancer HT29; test: In vitro cell growth inhibition test, MTT assay; format: cell-based; settings: MTT assay 4 days after compound addition
assay_readout: IC50, HT29 (ng/mL)

A: CCNC(=Nc1nc(C)ncc1CSc1nnc(-c2ccc([N+](=O)[O-])cc2)o1)NCC(F)(F)F
B: CCNC(=Nc1ncncc1CSc1nnc(-c2ccncc2)o1)NCC
C: CCCNC(=Nc1nc(C)ncc1CSc1nnc(-c2ccc(C)cc2)o1)NCCC
D: CCNC(=Nc1nc(C)ncc1CSc1nnc(-c2ccc(N)cc2Cl)o1)NCC
INPUT: Can you order these entries from above by IC50, HT29? Start with the largest number and work down. Output spec: labels arranged per the requested ranking.
OUTPUT: B, C, D, A
(B: 40 ng/mL, C: 24 ng/mL, D: 15 ng/mL, A: 10 ng/mL)
